Assay: RAM signaling pathway blockade in yeast – S. cerevisiae, Pdr1DBD-CYC8 efflux-inhibited sensitized strain, primary screen (AID 1298);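 note: 0% = DMSO untreated cells without growth and 100% = 10 µM 1-NA-PP1 full growth; higher means more yeast growth rescued from 5-FOA killing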
Details: S. cerevisiae cbk1-as DSE1-URA3 strain, 5-FOA growth OD615, 2 d; at 50 µM; stronger effect = higher value
Response key: 1 means RAM network inhibition >= 2%; 0 means RAM network inhibition < 2%.

Worked set:
>>> print(df.to_string())
                                   molecule  classification
0  C#CCOC(=O)C1C2C=CC(C2)C1C(=O)O (centres undefined)               1
1  COc1cccc(-c2nc(CS(=O)(=O)CC(=O)N3CCc4ccccc4C3)c(C)o2)c1               1
2  CCOC(=O)N1CCC(N2CC34C=CC(O3)C(C(=O)Nc3ccc(C)cc3)C4C2=O)CC1 (centres undefined)               1
3  Cc1ccc(S(=O)(=O)NCCOC(=O)Nc2sc(=S)n(C)c2C)cc1               0
4   CCOC(=O)c1sc2nc(NC(=O)COc3ccccc3)sc2c1C               0
5  Cc1cccn2c(=O)c3cc(C(=O)NCCN4CCOCC4)c(=N)n(CCc4ccccc4)c3nc12               1
6  COc1ccc(S(=O)(=O)N2CCN(Cc3c[nH]c4ccccc34)CC2)cc1               1
7  COC(=O)c1ccc(Nc2ncnc3c2cnn3-c2cccc(C)c2)cc1               1

Next up:
Record CC1(C)CC(=O)C(C=NCCO)=C(O)C1 ; criterion: RAM network inhibition no lower than 2%. Met?
1

###

Biological target: Receptor tyrosine-protein kinase erbB-2 (Homo sapiens) (UniProt P04626)
Sequence (P04626 whole entry, looked up): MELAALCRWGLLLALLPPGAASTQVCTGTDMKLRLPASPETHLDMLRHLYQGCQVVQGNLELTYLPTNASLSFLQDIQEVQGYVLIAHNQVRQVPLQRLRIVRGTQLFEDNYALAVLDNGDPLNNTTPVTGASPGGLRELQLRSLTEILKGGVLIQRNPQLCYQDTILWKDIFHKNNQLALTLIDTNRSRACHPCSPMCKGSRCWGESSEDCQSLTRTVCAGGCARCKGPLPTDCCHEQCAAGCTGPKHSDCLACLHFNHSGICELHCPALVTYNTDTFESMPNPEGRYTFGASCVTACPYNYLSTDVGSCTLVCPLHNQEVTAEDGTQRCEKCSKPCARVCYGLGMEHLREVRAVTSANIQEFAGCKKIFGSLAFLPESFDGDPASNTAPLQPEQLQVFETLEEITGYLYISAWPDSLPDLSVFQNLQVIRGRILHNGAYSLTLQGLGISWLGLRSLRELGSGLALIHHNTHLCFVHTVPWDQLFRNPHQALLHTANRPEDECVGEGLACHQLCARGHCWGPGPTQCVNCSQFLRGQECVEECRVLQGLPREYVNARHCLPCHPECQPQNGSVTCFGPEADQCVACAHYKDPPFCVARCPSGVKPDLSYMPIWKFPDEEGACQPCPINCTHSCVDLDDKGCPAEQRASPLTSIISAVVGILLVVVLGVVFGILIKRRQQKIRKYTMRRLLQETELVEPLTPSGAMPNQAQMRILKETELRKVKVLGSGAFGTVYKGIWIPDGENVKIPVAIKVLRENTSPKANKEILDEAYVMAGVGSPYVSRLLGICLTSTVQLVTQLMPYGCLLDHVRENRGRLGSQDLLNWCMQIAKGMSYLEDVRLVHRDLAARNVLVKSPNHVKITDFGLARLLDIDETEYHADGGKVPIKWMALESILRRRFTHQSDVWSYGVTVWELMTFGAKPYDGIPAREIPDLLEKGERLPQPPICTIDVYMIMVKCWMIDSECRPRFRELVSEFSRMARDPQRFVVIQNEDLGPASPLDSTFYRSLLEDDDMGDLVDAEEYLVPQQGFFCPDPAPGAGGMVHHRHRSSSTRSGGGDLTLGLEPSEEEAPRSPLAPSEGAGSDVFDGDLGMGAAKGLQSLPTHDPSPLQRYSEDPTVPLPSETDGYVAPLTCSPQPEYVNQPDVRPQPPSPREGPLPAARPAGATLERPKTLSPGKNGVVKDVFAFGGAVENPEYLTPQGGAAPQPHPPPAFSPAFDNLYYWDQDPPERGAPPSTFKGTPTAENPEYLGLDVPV
Assay: Her2 expression decrease, cell viability multiplex – SKBR3 breast tumor cells, AlphaScreen, ATP viability, primary screen (AID 461);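 note: lower value means less Her2 protein in the cells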
Settings: 18-24 h, at 10 µM, stronger effect = lower value
metric: Her2 level (%)
One number for each entry, in %.

In [3]: df
Out[3]:
                                   compound                                measuredon      metric  unittext  obsvalue
0  CC1CCN(Cc2ccc(NC(=O)C3CCN(c4nnc(-n5cccc5)s4)CC3)cc2)CC1  Receptor tyrosine-protein kinase erbB-2 (Homo sapiens) (UniProt P04626)  Her2 level         %      90.5
1  CC1C(=O)C(C)C(c2cccs2)NC1c1cccs1 (stereo unspecified)  Receptor tyrosine-protein kinase erbB-2 (Homo sapiens) (UniProt P04626)  Her2 level         %       100

Hello, I would appreciate it if you could give Her2 level for each entry below.
1. Cn1cccc1Cc1nnc(SCC(=O)NCC2CCCO2)n1-c1ccc(F)cc1 (stereo unspecified)
2. COc1ccc(N2CCN(C(c3ccccc3)c3sc4nc(C)nn4c3O)CC2)cc1 (stereo unspecified)
3. CN(C)CCCN1C(=O)c2oc3ccc(Cl)cc3c(=O)c2C1c1cccnc1 (stereo unspecified)
4. COC(=O)c1cn(NC(=O)c2cccnc2)c(=O)c2ccccc12

90
101
90.5
84

###

Assay: S. cerevisiae growth inhibition in restrictive medium, OD615, pilot screen, restrictive growth control, yeast lifespan reduction project (AID 706);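 note: modified DeaD lifespan yeast strain shifted to restrictive glucose medium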
Conditions: OD615, 48 h, at 10 µM, stronger effect = higher value
metric: growth inhibition (%)
One number for each entry, in %.

Worked cases, answers included:
>>> df
                                   compound             metric  obsvalue
0                CCCCNC(=O)Nc1ccnn1C1CCCCC1  growth inhibition       -15
1  CCSC(C)CC1C/C(=N/O)c2c(CC)noc2C1 (stereo not drawn)  growth inhibition     -4.39

# lookup: growth inhibition of CC(=O)N1c2c(cc(Br)cc2S(=O)(=O)NCC2COc3ccccc3O2)CC1C (stereo not drawn)
8.23
